- testedSystem: Cytochrome P450 2C9 (Homo sapiens)
- assayExplanation: Cytochrome panel assay with activity outcomes
- particulars: recombinant CYP, pro-luciferin dealkylation, luminescence, p450-cyp2c9; series mostly up to 57.1 µM
Out of some 16,000 compounds screened, about 4,000 (25%) were called active. Not shown: some 26% with an inconclusive outcome. Calls come from the whole dose curve; as a rule, active = well fitted curve in the direction sought with a large enough effect; inconclusive = small, poorly fitted or top-dose-only effect, or effect the other way; inactive = no such curve, though single readings can be large or run the other way. The list is a sample of the results.
Labels: yes = active, no = inactive

molecule	className
CC(=O)Nc1nnc(S(N)(=O)=O)s1	no
COCC(=O)N1CCN(c2ccc([N+](=O)[O-])cc2)CC1	no
CC(=O)OCC1=C(C(=O)O)N2C(=O)[C@@H](NC(=O)CSc3ccncc3)[C@@H]2SC1	no
COc1cc(/C=C2\SC(=S)N(Nc3ccccc3)C2=O)cc(OC)c1OC	yes
O=S(=O)(c1ccc(F)cc1)n1ccc(-c2cnc(-c3ccccc3)s2)n1	yes
CCC/C=C(\CCC)C(NC(=O)c1ccc(C(F)(F)F)cc1)c1ccc(C(F)(F)F)cc1 (centres undefined)	no
COCC(=O)N1CCC2(CCCN(C(=O)Nc3ccc(OC)cc3)C2)CC1	no
CCS(=O)(=O)N1CCN(c2c(Cl)cccc2[N+](=O)[O-])CC1	yes
CCOC(=O)c1c(NC(=O)c2ccc(N3CCOCC3)c([N+](=O)[O-])c2)sc(C)c1C	no

====

- testedSystem: Cytochrome P450 2C9 (Homo sapiens) (UniProt P11712)
- Sequence (P11712 whole entry, looked up): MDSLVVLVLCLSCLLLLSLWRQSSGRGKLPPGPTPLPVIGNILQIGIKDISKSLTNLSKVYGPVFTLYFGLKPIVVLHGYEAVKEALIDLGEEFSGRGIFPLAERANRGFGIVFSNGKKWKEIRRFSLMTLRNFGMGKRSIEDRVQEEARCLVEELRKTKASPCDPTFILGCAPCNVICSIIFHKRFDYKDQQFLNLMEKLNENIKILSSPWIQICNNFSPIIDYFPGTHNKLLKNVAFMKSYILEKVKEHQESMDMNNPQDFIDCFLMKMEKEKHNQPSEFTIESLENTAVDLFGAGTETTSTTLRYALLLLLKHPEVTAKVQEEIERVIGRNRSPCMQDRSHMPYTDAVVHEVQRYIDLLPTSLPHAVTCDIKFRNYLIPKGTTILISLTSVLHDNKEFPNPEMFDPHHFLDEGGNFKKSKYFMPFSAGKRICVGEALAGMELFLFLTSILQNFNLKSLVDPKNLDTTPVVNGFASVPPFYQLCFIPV
- assayExplanation: Cytochrome panel assay with activity outcomes; for activity, negative = inhibition: % is set by controls: 0 for no effect and ±100 for the full control effect
- particulars: recombinant CYP, pro-luciferin dealkylation, luminescence, p450-cyp2c9; series mostly up to 57.1 µM
In all, about 16,000 compounds went through this assay and about 4,000 (25%) were called active. Not shown: some 26% with an inconclusive outcome. A selection follows.
activity, negative = inhibition values for the molecules below.
parameter: activity, negative = inhibition

structureAsSmiles	measured
CC(=O)/C(=N\N=C(N)N)c1ccccc1	11.7% [at 11.4 µM] (inactive)
CN(C)C(=O)c1ccc(-c2cncnc2Nc2ccccc2)cc1	-3.51% [at 2.29 µM] (inactive)
COc1cccc(-c2cc(NCc3ccc(OC)cc3OC)ncn2)c1	-18.3% [at 2.29 µM] (inactive)
Cc1c(S(=O)(=O)O)ccc(N=Nc2c(O)c(C(=O)O)cc3ccccc23)c1Cl	-11.1% [at 11.4 µM] (inactive)
N#Cc1cccc(-c2nc(Nc3ccccc3)c3ccccc3n2)c1	-3.27% [at 2.29 µM] (inactive)
COc1ccccc1-c1nc(NCCNC(C)=O)c2ccccc2n1	3.78% [at 2.29 µM] (inactive)
c1ccc(NCCSc2nc3ccccc3s2)cc1	-12.4% [at 11.4 µM] (inactive)
c1ccc2c[n+](Cc3ccnc4ccccc34)ccc2c1	-6.16% [at 11.4 µM] (inactive)
Nc1c(OCC(=O)O)ccc2cc(S(=O)(=O)O)ccc12	-7.12% [at 11.4 µM] (inactive)
c1cncc(-c2ccc3ncnc(NCCN4CCOCC4)c3c2)c1	23.6% [at 2.29 µM] (inactive)
O=C(N[C@@]1(C(=O)O)C[C@@H]1c1ccccc1)c1ccccc1	5.78% [at 11.4 µM] (inactive)
Cc1cc(Cl)nc2ccc(Cc3ccc4nc(Cl)cc(C)c4c3)cc12	0.565% [at 11.4 µM] (inactive)
N[C@@H](Cc1ccccc1)C(=O)O	13.9% [at 11.4 µM] (inactive)
Nc1nc(N)c2nn(-c3ccc(C(=O)O)cc3)nc2n1	7.68% [at 11.4 µM] (inactive)
C[N+](C)([O-])CCC=C1c2ccccc2CCc2ccccc21	-29.7% [at 11.4 µM] (inactive)
C[C@@H]1NC(=O)C/C=C\[C@@H](C)[C@@H]2C=C[C@H](O)[C@@H](COC(=O)[C@H](C)NC(=O)C/C=C\[C@@H](C)[C@@H]3C=C[C@H](O)[C@@H](COC1=O)O3)O2	5.32% [at 11.4 µM] (inactive)
CC(=O)NCCNc1ncncc1-c1ccccc1CN(C)C	4.96% [at 2.29 µM] (inactive)
Cc1cnc(CNc2cc(-c3ccccc3C)ncn2)cn1	-11.2% [at 2.29 µM] (inactive)
CC(=O)OC[C@@H]1O[C@@H](O/N=C2/C[C@@H](O)[C@@H](O)[C@@H]3[C@@H]4C(=O)N([C@@H](C)c5ccccc5)C(=O)[C@H]4CC[C@@H]23)[C@H](OC(C)=O)[C@H](OC(C)=O)[C@@H]1OC(C)=O	16.3% [at 11.4 µM] (inactive)
CO[C@@H]1COC(=O)[C@H](COCc2ccccc2)NC(=O)C/C=C\[C@@H](C)[C@H](OC)COC(=O)[C@@H](C)NC(=O)C/C=C\[C@H]1C	-22.8% [at 11.4 µM] (inactive)
O=C(N/N=C1/C[C@@H](O)[C@@H](O)[C@@H]2[C@@H]3C(=O)N(Cc4ccccc4)C(=O)[C@H]3CC[C@@H]12)OCc1ccccc1	9.14% [at 11.4 µM] (inactive)
Cc1noc(C)c1-c1nccc(N(C)C)n1	-8.59% [at 2.29 µM] (inactive)
CC(C)=CCC/C(C)=C/CO/N=C1/C[C@@H](O)[C@@H](O)[C@@H]2[C@H]3C(=O)N(c4ccc(F)cc4F)C(=O)[C@@H]3CC[C@@H]12	-4.09% [at 11.4 µM] (inactive)
c1ccc2c(NC3CCNCC3)nc(-c3ccoc3)nc2c1	-0.161% [at 2.29 µM] (inactive)
CNc1nc(-c2cccc(C#N)c2)nc2ccccc12	-18.8% [at 2.29 µM] (inactive)
Cc1cnc(CNc2nc(-c3ccoc3)nc3ccccc23)cn1	-6.46% [at 2.29 µM] (inactive)
O=S(=O)(c1ccc(Br)cc1)N1CCN(S(=O)(=O)c2ccc(Br)cc2)CC1	25.6% [at 11.4 µM] (inactive)
O=S(=O)(O)c1ccc(N=Nc2ccc3c(S(=O)(=O)O)cccc3c2O)c2ccccc12	-12.3% [at 11.4 µM] (inactive)
CN(N=O)c1ccc(/C=C\c2ccnc3ccccc23)cc1	-6.97% [at 11.4 µM] (inactive)
Nc1nc(N)nc(CC(=O)O)n1	-0.0515% [at 11.4 µM] (inactive)
